Target: V domain of the receptor for advanced glycation end products (RAGE) (human, UniProt Q15109 24-125)
Sequence (Q15109 24-125): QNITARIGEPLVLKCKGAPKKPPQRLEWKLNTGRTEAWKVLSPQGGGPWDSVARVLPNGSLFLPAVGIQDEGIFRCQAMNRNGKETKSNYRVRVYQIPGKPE
Assay: other fluorescence titration
Square brackets hold non-standard residues; d marks the D form. Ends that are not written are not given here.
measured parameter: Kd (nM)
Numbers only; they are read as nM.

Item: ALT[MG‑H1]EYTG [ALT(MG-H1)EYTG, synthetic MG-H1-containing peptide] | Kd: 44
